Hello, the source for this data is PubChem BioAssay, in case you need it.

Procedure summary: nonspecific calcium rise without TRPC4 – cell-based, HEK293 mu-opioid receptor line, counter-screen for TRPC4 activator project, confirmation (AID 449723);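 note: counter screen cells carry the mu-opioid receptor alone and lack TRPC4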
Condition details: HEK293 mu-opioid cells, Fluo-4 calcium fluorescence, at 10 µM
The source made the active and inactive calls.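 Rule for the calls: active = hit in primary screen, with calcium signal over 5 SD above buffer well mean in both duplicates; inactive = the rest.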
// one of active, inactive, no free text

Known results for molecules:
| Molecule | Class label |
| --- | --- |
| COc1ccc(C(CNC(=O)Cc2ccc(-c3ccccc3)cc2)N(C)C)cc1 (configuration not stated) | inactive |
| CCOC(=O)C1(Cc2cccc(OC)c2)CCN(Cc2ccc(OC)c(O)c2)CC1 | inactive |
| CCN1CCCC1CNS(=O)(=O)c1c(C)cc(C)cc1C (configuration not stated) | inactive |

Query: Call for entry CCOC(=O)C1(CCOc2ccccc2)CCN(Cc2cccn2-c2ncccn2)CC1 :
Reply: inactive

====

Experimental system: Inward rectifier potassium channel 2 (Mus musculus) (UniProt P35561)
Sequence (P35561 whole entry, looked up): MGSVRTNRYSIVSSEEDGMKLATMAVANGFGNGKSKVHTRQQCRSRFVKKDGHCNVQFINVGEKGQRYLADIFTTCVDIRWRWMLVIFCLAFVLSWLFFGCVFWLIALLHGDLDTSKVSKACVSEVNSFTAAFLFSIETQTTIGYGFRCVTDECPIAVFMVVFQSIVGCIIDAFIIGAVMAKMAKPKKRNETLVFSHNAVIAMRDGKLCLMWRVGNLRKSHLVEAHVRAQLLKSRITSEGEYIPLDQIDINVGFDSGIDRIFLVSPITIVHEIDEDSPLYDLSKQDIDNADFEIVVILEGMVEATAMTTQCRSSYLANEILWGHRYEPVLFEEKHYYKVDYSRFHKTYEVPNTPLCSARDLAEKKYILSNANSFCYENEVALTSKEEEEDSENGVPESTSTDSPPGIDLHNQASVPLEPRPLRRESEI
Procedure summary: inhibition of Kir2.1 inward rectifier potassium flux – cell-based, FluxOR thallium flux, duplicate, confirmation (AID 2032)
Condition details: Kir2.1-expressing cells, FluxOR thallium flux fluorescence, at 10 µM
Some of the results follow. Active and inactive are the calls of the source.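 How the source made its calls: active means Primary-screen hit whose thallium flux fell at least 3 control SD below untreated wells in both duplicates, with normal baseline fluorescence; inactive means the rest.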
The reply should be one of these categories: active, inactive

Worked set:
| Test smiles | Class label |
| --- | --- |
| Oc1c(Cl)cc(Cl)cc1/C=N/c1ncn[nH]1 | inactive |
| O=C(/C=C/Sc1ncn[nH]1)c1ccc(Cl)cc1 | inactive |
| CC(C)(C)c1cc2cccnc2n1Cc1cccc(F)c1 | active |
| CCc1ccc(-c2nn(-c3ccccc3)cc2CSC(=N)N)cc1 | active |
| CC(=O)N(C1=C(Cl)C(=O)c2ccccc2C1=O)c1ccc(C(=O)O)cc1 | inactive |

// next entry
Query: Could you check what this test reported for O=C(NNC1=C(C(=O)C(F)(F)F)CCC1)c1ccncc1 ?
Reply: inactive

====

Experimental system: Short transient receptor potential channel 4 (Mus musculus) (UniProt Q9QUQ5)
Sequence (Q9QUQ5 whole entry, looked up): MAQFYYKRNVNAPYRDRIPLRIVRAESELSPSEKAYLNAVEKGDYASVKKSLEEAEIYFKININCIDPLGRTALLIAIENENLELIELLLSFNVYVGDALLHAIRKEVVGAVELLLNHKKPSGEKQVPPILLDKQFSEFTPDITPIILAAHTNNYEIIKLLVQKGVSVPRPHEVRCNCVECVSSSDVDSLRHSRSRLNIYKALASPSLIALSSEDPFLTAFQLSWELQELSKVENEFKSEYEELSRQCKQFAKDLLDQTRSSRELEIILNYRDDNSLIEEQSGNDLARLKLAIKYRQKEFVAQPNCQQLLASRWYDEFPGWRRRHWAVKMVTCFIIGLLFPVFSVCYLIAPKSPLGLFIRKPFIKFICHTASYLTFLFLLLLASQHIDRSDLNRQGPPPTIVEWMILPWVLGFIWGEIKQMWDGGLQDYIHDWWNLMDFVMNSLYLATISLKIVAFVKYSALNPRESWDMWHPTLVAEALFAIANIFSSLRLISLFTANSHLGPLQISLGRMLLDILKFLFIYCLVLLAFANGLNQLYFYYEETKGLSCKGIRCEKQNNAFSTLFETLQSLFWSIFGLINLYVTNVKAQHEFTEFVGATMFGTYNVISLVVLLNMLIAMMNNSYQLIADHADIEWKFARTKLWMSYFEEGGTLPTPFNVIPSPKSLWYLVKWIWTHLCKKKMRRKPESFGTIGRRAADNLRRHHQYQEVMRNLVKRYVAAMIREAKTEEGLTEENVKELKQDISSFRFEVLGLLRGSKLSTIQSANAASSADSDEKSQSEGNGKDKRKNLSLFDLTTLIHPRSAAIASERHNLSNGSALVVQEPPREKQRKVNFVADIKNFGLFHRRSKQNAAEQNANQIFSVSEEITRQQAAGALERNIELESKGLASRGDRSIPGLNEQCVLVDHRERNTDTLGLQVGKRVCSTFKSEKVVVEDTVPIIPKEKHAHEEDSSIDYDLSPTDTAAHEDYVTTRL
Procedure summary: blockers of DAMGO-evoked TRPC4 calcium flux – cell-based, second round, Fluo4, HEK293 TRPC4beta/mu-opioid, 1 µM, confirmation (AID 2637)
Condition details: at 1 µM
Calls of active or inactive are those of the source.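 How the source made its calls: active means calcium signal ratio cut to more than 3 SD under the fully stimulated control mean yet still positive, in both repeats and the primary screen; inactive means the rest.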
Please state which outcome applies, choosing from active, inactive

| Compound | Class label |
| --- | --- |
| Cc1ccc(CNC(C)c2ccccc2)cc1 (stereo not given) | inactive |

Query: Name the outcome recorded for Cc1cccc(OCCOCCN2CCNCC2)c1C in the assay.
Reply: inactive

====

System: TRPC4 beta (transient receptor potential cation channel C4), mouse
Procedure summary: TRPC4 cation channel opening, retest – cell-based, Fluo4 calcium, HEK293 TRPC4beta/mu-opioid, duplicates, 10 µM, confirmation (AID 2426)
Condition details: Fluo4 calcium fluorescence, at 10 µM
The source made the active and inactive calls.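 Rule for the calls: active = fluorescence ratio normalized to control raised more than 50% in primary screen plus both repeat runs; inactive = the rest.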
The categories you may choose from are yes (1) = active, no (0) = inactive

| Compound | Experimental system | Class label |
| --- | --- | --- |
| OCCC1CN(Cc2ccccc2-c2ccco2)CCN1Cc1ccccc1 (stereo unspecified) | TRPC4 beta (transient receptor potential cation channel C4), mouse | no (0) |
| Cc1ccccc1Cn1c(CN2CCc3ccccc3C2)nc2c1c(=O)n(C)c(=O)n2C | TRPC4 beta (transient receptor potential cation channel C4), mouse | yes (1) |

Query: Hey, what did the test say about COc1ccccc1N(C(=O)c1snc(C(N)=O)c1N)C(C(=O)NCc1ccccc1)c1ccc(C)o1 (stereo unspecified) ?
Reply: no (0)

Query: Record request — test call for COC(=O)CSc1nn(-c2ccc(F)cc2)c(=S)s1
Reply: no (0)

Query: // param item: CCCCN(CC)CCNC(=O)c1cc2c(=O)n(C)c3ccccc3c2s1 ; yields the recorded call
Reply: no (0)

Query: Kindly provide the recorded test outcome for the following compound: Cn1cc(CN2CCCCC2CO)c(-c2ccc(Oc3ccccc3)cc2)n1 (stereo unspecified)
Reply: no (0)
